# measured target: DDR2 (Homo sapiens)
# Sequence (Q16832 22-855): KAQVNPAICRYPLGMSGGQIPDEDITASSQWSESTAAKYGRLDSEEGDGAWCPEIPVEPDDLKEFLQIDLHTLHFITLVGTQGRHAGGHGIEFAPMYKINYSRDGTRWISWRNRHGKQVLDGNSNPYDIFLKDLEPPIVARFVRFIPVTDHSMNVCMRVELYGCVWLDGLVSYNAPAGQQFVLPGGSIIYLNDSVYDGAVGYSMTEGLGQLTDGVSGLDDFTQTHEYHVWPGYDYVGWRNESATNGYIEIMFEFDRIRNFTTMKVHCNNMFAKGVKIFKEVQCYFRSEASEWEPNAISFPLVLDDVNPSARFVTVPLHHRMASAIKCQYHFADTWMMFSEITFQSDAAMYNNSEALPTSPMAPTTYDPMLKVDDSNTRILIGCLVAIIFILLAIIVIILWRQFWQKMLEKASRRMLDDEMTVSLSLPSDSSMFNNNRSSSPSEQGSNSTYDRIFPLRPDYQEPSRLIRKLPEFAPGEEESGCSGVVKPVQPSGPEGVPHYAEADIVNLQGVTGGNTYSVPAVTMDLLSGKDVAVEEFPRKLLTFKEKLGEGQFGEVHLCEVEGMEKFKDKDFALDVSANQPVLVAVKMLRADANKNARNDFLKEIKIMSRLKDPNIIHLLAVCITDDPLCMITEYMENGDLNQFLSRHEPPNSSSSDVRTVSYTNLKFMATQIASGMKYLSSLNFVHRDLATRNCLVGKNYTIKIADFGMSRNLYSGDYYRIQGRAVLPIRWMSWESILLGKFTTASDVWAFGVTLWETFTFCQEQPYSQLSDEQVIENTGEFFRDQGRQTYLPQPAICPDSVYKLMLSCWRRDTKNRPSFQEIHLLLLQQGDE
# experimental parameters: 10 μM
# Percent control values compiled below
Value expressed in %; do not type the unit.

Cc1ccc(NC(=O)c2ccc(CN3CCN(C)CC3)cc2)cc1Nc1nccc(-c2cccnc2)n1 [Imatinib, reference compound]: 0.1
Cc1ccc(NC(=O)c2ccc(CN3CCN(C)CC3)cc2)cc1Nc1nccc(-c2cccnc2)[n+]1[Pt-2]1([Cl])[NH2+]C2CCCCC2[NH2+]1 (stereo not shown) [1b, oxaliplatin-imatinib]: 10

Per the records, this molecule ( COc1cc2c(Nc3ccc(Br)cc3F)[n+]([Pt-2]3([Cl])[NH2+]C4CCCCC4[NH2+]3)cnc2cc1OCC1CCN(C)CC1 (stereo not shown) [3b, oxaliplatin-vandetanib] ) has Percent control equal to 0.21

Reported Percent control for C#Cc1cccc(Nc2c3cc(OCCOC)c(OCCOC)cc3nc[n+]2[Pt@SP2-2]([NH3+])([NH3+])[Cl])c1 [2a, cisplatin-erlotinib] was 100

----------
// Percent control lookup, one value per entry
# measured target: TRKB (Homo sapiens)
# Construct: purchased DiscoveRx (KINOMEscan service)
# Sequence (Q16620 32-822): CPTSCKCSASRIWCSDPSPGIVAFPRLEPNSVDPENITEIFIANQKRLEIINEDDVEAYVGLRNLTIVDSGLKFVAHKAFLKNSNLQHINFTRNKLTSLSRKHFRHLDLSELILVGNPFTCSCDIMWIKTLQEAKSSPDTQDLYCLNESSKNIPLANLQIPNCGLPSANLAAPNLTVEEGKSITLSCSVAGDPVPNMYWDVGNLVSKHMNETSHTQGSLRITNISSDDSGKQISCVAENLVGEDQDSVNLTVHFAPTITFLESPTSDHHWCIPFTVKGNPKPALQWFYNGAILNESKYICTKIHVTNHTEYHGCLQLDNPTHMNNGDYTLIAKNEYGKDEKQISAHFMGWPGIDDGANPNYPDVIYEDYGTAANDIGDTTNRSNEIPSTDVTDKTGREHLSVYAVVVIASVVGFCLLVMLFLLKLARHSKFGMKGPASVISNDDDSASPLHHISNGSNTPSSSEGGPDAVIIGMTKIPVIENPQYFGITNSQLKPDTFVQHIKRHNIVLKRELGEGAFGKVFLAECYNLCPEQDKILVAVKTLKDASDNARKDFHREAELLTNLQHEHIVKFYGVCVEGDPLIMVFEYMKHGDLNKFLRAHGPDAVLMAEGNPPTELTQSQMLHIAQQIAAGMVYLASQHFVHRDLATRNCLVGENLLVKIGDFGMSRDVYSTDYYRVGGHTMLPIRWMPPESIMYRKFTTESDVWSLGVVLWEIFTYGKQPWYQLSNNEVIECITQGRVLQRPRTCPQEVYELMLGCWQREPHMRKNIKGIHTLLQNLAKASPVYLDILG
# Type: binding
# experimental parameters: TRKB; 10 μM
Numbers only here, please. The scale is %.

Record summary for COc1cc2c(Nc3ccc(Br)cc3F)[n+]([Pt-2]3([Cl])[NH2+]C4CCCCC4[NH2+]3)cnc2cc1OCC1CCN(C)CC1 (stereo not shown) : reported Percent control = 72

Short answer for Cc1ccc(NC(=O)c2ccc(CN3CCN(C)CC3)cc2)cc1Nc1nccc(-c2cccnc2)[n+]1[Pt-2]1([Cl])[NH2+]C2CCCCC2[NH2+]1 (stereo not shown) : Percent control was 100

Quick note, Percent control for C#Cc1cccc(Nc2c3cc(OCCOC)c(OCCOC)cc3nc[n+]2[Pt@SP2-2]([NH3+])([NH3+])[Cl])c1 [2a, cisplatin-erlotinib] landed at 95

Percent control reading for Cc1ccc(NC(=O)c2ccc(CN3CCN(C)CC3)cc2)cc1Nc1nccc(-c2cccnc2)n1 [Imatinib, reference compound] : 100

----------
Reported Percent control by item:
# measured target: TYRO3 (Homo sapiens)
# Construct: purchased DiscoveRx Corporation (KINOMEscan service)
# Sequence (Q06418 41-890): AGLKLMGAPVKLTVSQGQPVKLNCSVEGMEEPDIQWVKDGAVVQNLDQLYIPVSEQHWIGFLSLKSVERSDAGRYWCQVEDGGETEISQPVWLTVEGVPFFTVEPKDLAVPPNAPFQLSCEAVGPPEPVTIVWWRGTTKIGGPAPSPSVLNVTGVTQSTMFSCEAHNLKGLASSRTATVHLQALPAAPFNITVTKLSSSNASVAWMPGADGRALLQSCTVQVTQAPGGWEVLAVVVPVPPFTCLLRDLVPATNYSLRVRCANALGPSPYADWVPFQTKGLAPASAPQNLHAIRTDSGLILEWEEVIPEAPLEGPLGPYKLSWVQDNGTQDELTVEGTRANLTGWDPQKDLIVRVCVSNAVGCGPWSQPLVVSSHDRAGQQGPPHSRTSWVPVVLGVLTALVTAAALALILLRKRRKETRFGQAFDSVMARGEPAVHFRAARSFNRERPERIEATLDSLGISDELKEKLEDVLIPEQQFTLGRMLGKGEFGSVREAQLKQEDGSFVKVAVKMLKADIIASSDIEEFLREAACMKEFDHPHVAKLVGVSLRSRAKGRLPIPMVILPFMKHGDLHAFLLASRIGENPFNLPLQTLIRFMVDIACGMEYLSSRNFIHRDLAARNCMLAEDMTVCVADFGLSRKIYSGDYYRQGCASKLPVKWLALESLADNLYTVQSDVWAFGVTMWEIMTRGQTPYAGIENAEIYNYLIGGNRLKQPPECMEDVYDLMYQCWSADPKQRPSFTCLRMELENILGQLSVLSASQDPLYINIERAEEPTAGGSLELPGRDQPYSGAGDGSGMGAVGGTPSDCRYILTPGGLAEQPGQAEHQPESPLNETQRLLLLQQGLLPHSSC
# Assay type: binding
# experimental parameters: 10 μM
Just the number please, in %, no unit attached.

Observe how each entry below is paired with its result.
C#Cc1cccc(Nc2c3cc(OCCOC)c(OCCOC)cc3nc[n+]2[Pt@SP2-2]([NH3+])([NH3+])[Cl])c1 [2a, cisplatin-erlotinib]: 85
Cc1ccc(NC(=O)c2ccc(CN3CCN(C)CC3)cc2)cc1Nc1nccc(-c2cccnc2)[n+]1[Pt-2]1([Cl])[NH2+]C2CCCCC2[NH2+]1 (stereo not shown): 80
Cc1ccc(NC(=O)c2ccc(CN3CCN(C)CC3)cc2)cc1Nc1nccc(-c2cccnc2)n1 [Imatinib, reference compound]: 100

Entry COc1cc2c(Nc3ccc(Br)cc3F)[n+]([Pt-2]3([Cl])[NH2+]C4CCCCC4[NH2+]3)cnc2cc1OCC1CCN(C)CC1 (stereo not shown) , Percent control reported as 0

----------
# measured target: TNK1 (Homo sapiens, UniProt Q13470)
# Construct: purchased DiscoveRx (KINOMEscan service)
# Sequence (Q13470 1-666): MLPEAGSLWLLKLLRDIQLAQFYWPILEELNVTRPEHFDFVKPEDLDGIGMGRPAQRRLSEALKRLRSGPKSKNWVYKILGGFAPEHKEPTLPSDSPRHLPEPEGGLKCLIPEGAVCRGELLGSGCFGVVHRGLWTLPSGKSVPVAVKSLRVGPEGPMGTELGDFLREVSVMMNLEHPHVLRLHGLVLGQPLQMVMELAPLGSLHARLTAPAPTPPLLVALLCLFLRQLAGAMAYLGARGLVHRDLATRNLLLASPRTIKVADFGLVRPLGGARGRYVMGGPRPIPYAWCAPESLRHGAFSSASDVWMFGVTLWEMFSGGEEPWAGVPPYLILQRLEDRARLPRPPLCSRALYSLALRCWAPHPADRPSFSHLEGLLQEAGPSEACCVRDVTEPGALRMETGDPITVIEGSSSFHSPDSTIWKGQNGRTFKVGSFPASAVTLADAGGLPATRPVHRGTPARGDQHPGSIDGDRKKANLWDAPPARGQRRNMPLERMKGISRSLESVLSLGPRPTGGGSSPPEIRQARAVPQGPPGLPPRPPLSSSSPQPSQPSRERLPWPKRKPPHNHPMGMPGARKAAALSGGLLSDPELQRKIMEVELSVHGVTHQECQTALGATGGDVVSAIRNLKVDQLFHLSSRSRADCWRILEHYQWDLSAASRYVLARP
# Format: binding
# experimental parameters: 10 μM
assay metric: Percent control (%)
Report as a plain number; the unit % is understood.

Worked examples, 3 molecules total:
Cc1ccc(NC(=O)c2ccc(CN3CCN(C)CC3)cc2)cc1Nc1nccc(-c2cccnc2)[n+]1[Pt-2]1([Cl])[NH2+]C2CCCCC2[NH2+]1 (stereo not shown): 90
COc1cc2c(Nc3ccc(Br)cc3F)[n+]([Pt-2]3([Cl])[NH2+]C4CCCCC4[NH2+]3)cnc2cc1OCC1CCN(C)CC1 (stereo not shown): 90
C#Cc1cccc(Nc2c3cc(OCCOC)c(OCCOC)cc3nc[n+]2[Pt@SP2-2]([NH3+])([NH3+])[Cl])c1 [2a, cisplatin-erlotinib]: 85

Kindly review the next molecule as well.
Recorded Percent control (molecule Cc1ccc(NC(=O)c2ccc(CN3CCN(C)CC3)cc2)cc1Nc1nccc(-c2cccnc2)n1 [Imatinib, reference compound] ): 100

----------
# measured target: BMX (Homo sapiens)
# Construct: purchased DiscoveRx KINOMEscan
# Sequence (P51813 whole entry): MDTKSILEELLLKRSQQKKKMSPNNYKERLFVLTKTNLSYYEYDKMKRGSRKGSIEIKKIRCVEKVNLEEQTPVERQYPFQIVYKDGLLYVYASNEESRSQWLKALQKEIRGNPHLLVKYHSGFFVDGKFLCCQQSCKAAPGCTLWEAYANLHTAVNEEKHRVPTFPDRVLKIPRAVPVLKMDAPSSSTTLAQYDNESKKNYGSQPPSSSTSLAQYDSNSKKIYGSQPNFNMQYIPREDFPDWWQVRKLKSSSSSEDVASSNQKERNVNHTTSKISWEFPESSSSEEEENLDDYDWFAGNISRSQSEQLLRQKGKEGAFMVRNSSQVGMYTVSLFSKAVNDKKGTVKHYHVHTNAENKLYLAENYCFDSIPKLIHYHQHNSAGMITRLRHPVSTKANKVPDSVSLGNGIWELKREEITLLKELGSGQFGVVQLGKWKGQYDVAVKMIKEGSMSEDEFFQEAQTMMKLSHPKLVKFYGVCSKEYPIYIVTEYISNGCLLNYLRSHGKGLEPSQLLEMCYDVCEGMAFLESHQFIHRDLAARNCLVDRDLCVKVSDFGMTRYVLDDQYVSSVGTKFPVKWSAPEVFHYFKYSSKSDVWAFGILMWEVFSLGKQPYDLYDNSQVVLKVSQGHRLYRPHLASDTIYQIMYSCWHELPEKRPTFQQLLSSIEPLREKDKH
# Type: binding
# experimental parameters: BMX; 10 μM
Measured Percent control by item
Express your answer in %, writing the number without its unit.

Illustrative cases are given below, each with its answer.
Cc1ccc(NC(=O)c2ccc(CN3CCN(C)CC3)cc2)cc1Nc1nccc(-c2cccnc2)n1 [Imatinib, reference compound]: 100
COc1cc2c(Nc3ccc(Br)cc3F)[n+]([Pt-2]3([Cl])[NH2+]C4CCCCC4[NH2+]3)cnc2cc1OCC1CCN(C)CC1 (stereo not shown): 92
Cc1ccc(NC(=O)c2ccc(CN3CCN(C)CC3)cc2)cc1Nc1nccc(-c2cccnc2)[n+]1[Pt-2]1([Cl])[NH2+]C2CCCCC2[NH2+]1 (stereo not shown): 98

Turning now to a further record.
Measured Percent control, C#Cc1cccc(Nc2c3cc(OCCOC)c(OCCOC)cc3nc[n+]2[Pt@SP2-2]([NH3+])([NH3+])[Cl])c1 [2a, cisplatin-erlotinib] : 100

----------
# measured target: UniProt:P54762
# Sequence (P54762 18-984): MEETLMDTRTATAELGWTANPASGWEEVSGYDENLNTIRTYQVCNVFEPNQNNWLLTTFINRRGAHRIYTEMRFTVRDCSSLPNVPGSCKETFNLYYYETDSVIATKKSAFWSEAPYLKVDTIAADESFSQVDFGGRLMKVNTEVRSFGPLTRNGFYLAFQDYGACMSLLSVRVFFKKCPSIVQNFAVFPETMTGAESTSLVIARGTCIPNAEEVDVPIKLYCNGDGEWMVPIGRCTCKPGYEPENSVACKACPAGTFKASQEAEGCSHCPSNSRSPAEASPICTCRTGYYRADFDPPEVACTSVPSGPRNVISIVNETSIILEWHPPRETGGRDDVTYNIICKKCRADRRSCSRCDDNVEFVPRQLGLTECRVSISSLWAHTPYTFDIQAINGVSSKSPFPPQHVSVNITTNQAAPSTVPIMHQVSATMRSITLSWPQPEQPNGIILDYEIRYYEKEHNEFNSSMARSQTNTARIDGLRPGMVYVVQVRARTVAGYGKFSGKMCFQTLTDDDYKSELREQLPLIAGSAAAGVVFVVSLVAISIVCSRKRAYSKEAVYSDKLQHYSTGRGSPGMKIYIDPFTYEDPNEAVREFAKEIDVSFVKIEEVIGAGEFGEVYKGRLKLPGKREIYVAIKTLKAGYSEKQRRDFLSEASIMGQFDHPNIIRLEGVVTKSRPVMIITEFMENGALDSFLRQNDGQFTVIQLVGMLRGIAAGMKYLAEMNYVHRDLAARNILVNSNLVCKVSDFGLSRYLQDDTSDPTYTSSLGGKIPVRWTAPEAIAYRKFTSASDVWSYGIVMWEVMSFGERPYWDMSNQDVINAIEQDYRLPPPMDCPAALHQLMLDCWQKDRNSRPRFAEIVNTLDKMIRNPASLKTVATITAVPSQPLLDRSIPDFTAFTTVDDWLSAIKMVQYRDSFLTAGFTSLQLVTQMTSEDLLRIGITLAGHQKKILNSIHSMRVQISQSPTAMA
# experimental parameters: 10 μM
assay metric: Percent control (%)
Only the number, expressed in %, is required.

# example entries with known answers
Cc1ccc(NC(=O)c2ccc(CN3CCN(C)CC3)cc2)cc1Nc1nccc(-c2cccnc2)n1 [Imatinib, reference compound]: 100
C#Cc1cccc(Nc2c3cc(OCCOC)c(OCCOC)cc3nc[n+]2[Pt@SP2-2]([NH3+])([NH3+])[Cl])c1 [2a, cisplatin-erlotinib]: 90
Cc1ccc(NC(=O)c2ccc(CN3CCN(C)CC3)cc2)cc1Nc1nccc(-c2cccnc2)[n+]1[Pt-2]1([Cl])[NH2+]C2CCCCC2[NH2+]1 (stereo not shown) [1b, oxaliplatin-imatinib]: 94

For COc1cc2c(Nc3ccc(Br)cc3F)[n+]([Pt-2]3([Cl])[NH2+]C4CCCCC4[NH2+]3)cnc2cc1OCC1CCN(C)CC1 (stereo not shown) [3b, oxaliplatin-vandetanib] the molecule record lists Percent control as 31

All figures here come from paper PMC4858680.
